The measured values listed here are drawn from ChEMBL document CHEMBL2440040.

tested on: Streptococcus pneumoniae; experiment: Antibacterial activity against erythromycin-sensitive Streptococcus pneumoniae 12-10 by broth microdilution method; assay type: functional
experimental.endpoint: MIC

{"compound": "CC[C@H]1OC(=O)[C@H](C)[C@@H](O[C@H]2C[C@@](C)(OC)[C@@H](O[C@@H]3O[C@H](C)[C@@H](O)[C@H](N(C)C)[C@H]3OC(=O)c3ccccc3)[C@H](C)O2)[C@H](C)[C@@H](O[C@@H]2O[C@H](C)C[C@H](N(C)C)[C@H]2O)[C@@](C)(OC)C[C@@H](C)C(=O)/C(C)=C/[C@]1(C)O", "MIC": "> 32 µg/mL"}

Query molecule follows.
Dear colleague, I am looking for the recorded MIC of the following molecule: CC[C@H]1OC(=O)[C@H](C)C(=O)[C@H](C)[C@@H](O[C@@H]2O[C@H](C)C[C@H](N(C)C)[C@H]2O)[C@](C)(OC)C[C@@H](C)C(=O)[C@H](C)[C@H]2N(CCCCn3cnc(-c4cccnc4)c3)C(=O)O[C@]12C
≤ 2 µg/mL

----------
tested on: Streptococcus pyogenes; assay: Antibacterial activity against erythromycin-resistant Streptococcus pyogenes 11-2 by broth microdilution method; type: functional
Assign MIC to each entry below.

{"compound": "CC[C@H]1OC(=O)[C@H](C)[C@@H](O[C@H]2C[C@@](C)(OC)[C@@H](O[C@@H]3O[C@H](C)[C@@H](OCc4ccccc4)[C@H](N(C)C)[C@H]3O)[C@H](C)O2)[C@H](C)[C@@H](O[C@@H]2O[C@H](C)C[C@H](N(C)C)[C@H]2O)[C@@](C)(OC)C[C@@H](C)C(=O)[C@H](C)[C@@H](O)[C@]1(C)O", "data.value": "> 32 µg/mL"}
{"compound": "CC[C@H]1OC(=O)[C@H](C)C(=O)[C@H](C)[C@@H](O[C@@H]2O[C@H](C)C[C@H](N(C)C)[C@H]2O)[C@](C)(OC)C[C@@H](C)C(=O)[C@H](C)[C@H]2N(CCCCn3cnc(-c4cccnc4)c3)C(=O)O[C@]12C", "data.value": "2 µg/mL"}

Let us move to another entry and its MIC.
Item CC[C@H]1OC(=O)[C@H](C)[C@@H](O[C@H]2C[C@@](C)(OC)[C@@H](O[C@@H]3O[C@H](C)[C@@H](OCc4ccccc4)[C@H](N(C)C)[C@H]3OC(=O)c3ccccc3)[C@H](C)O2)[C@H](C)[C@@H](O[C@@H]2O[C@H](C)C[C@H](N(C)C)[C@H]2O)[C@@](C)(OC)C[C@@H](C)C(=O)[C@H](C)[C@@H](O)[C@]1(C)O has what recorded MIC?
> 32 µg/mL

----------
Assign MIC to each entry below.
test system: Streptococcus pyogenes; assay: Antibacterial activity against erythromycin-resistant Streptococcus pyogenes 11-2 by broth microdilution method; assay type: functional
Numbers only, in µg/mL.

{"compound": "CC[C@H]1OC(=O)[C@H](C)[C@@H](O[C@H]2C[C@@](C)(OC)[C@@H](O[C@@H]3O[C@H](C)[C@@H](O)[C@H](N(C)C)[C@H]3O)[C@H](C)O2)[C@H](C)[C@@H](O[C@@H]2O[C@H](C)C[C@H](N(C)C)[C@H]2O)[C@@](C)(OC)C[C@@H](C)C(=O)[C@H](C)[C@H]2OC(=O)O[C@@]21C", "experimental.endpoint": "MIC", "data.value": 16}

Please give the measured MIC for this molecule: CC[C@H]1OC(=O)[C@H](C)[C@@H](O[C@H]2C[C@@](C)(OC)[C@@H](O)[C@H](C)O2)[C@H](C)[C@@H](O[C@@H]2O[C@H](C)C[C@H](N(C)C)[C@H]2O)[C@](C)(OC)C[C@@H](C)C(=O)[C@H](C)[C@@H](O)[C@]1(C)O
4

----------
test system: Streptococcus pneumoniae; experiment: Antibacterial activity against erythromycin-sensitive Streptococcus pneumoniae 12-4 by broth microdilution method; type: functional
Assignment: determine reported MIC for the given molecules.
Numbers only, in µg/mL.

{"compound": "CC[C@H]1OC(=O)[C@H](C)[C@@H](O[C@H]2C[C@@](C)(OC)[C@@H](O[C@@H]3O[C@H](C)[C@@H](O)[C@H](N(C)C)[C@H]3OC(=O)c3ccccc3)[C@H](C)O2)[C@H](C)[C@@H](O[C@@H]2O[C@H](C)C[C@H](N(C)C)[C@H]2O)[C@@](C)(OC)C[C@@H](C)C(=O)[C@H](C)[C@H]2OC(=O)O[C@@]21C", "MIC (µg/mL)": 16}

I am curious: what MIC value has been reported for CC[C@H]1OC(=O)[C@H](C)[C@@H](O[C@H]2C[C@@](C)(OC)[C@@H](O[C@@H]3O[C@H](C)[C@@H](O)[C@H](N(C)C)[C@H]3O)[C@H](C)O2)[C@H](C)[C@@H](O[C@@H]2O[C@H](C)C[C@H](N(C)C)[C@H]2O)[C@@](C)(OC)C[C@@H](C)C(=O)[C@H](C)[C@@H](O)[C@]1(C)O ?
16

----------
Please provide measured MIC for the entries that follow.
tested on: Streptococcus pyogenes; assay: Antibacterial activity against erythromycin-resistant Streptococcus pyogenes 11-2 by broth microdilution method; format: functional

Completed entries (count: 2):
{"compound": "CC[C@H]1OC(=O)[C@H](C)[C@@H](O[C@H]2C[C@@](C)(OC)[C@@H](O[C@@H]3O[C@H](C)[C@@H](O)[C@H](N(C)C)[C@H]3OC(=O)c3ccccc3)[C@H](C)O2)[C@H](C)[C@@H](O[C@@H]2O[C@H](C)C[C@H](N(C)C)[C@H]2O)[C@@](C)(OC)C[C@@H](C)C(=O)[C@H](C)[C@H]2OC(=O)O[C@@]21C", "MIC": "32 µg/mL"}
{"compound": "CC[C@H]1OC(=O)[C@H](C)[C@@H](O[C@H]2C[C@@](C)(OC)[C@@H](O[C@@H]3O[C@H](C)[C@@H](O)[C@H](N(C)C)[C@H]3O)[C@H](C)O2)[C@H](C)[C@@H](O[C@@H]2O[C@H](C)C[C@H](N(C)C)[C@H]2O)[C@@](C)(OC)C[C@@H](C)C(=O)[C@H](C)[C@@H](O)[C@]1(C)O", "MIC": "> 32 µg/mL"}

Need MIC of CC[C@H]1OC(=O)[C@H](C)[C@@H](O[C@H]2C[C@@](C)(OC)[C@@H](O[C@@H]3O[C@H](C)[C@@H](O)[C@H](N(C)C)[C@H]3OC(=O)c3ccccc3)[C@H](C)O2)[C@H](C)[C@@H](O[C@@H]2O[C@H](C)C[C@H](N(C)C)[C@H]2O)[C@@](C)(OC)C[C@@H](C)C(=O)[C@H](C)[C@@H](O)[C@]1(C)O , thanks.
> 32 µg/mL

----------
test system: Streptococcus pyogenes; test: Antibacterial activity against erythromycin-resistant Streptococcus pyogenes 11-2 by broth microdilution method; format: functional
experimental.endpoint: MIC

{"compound": "CC[C@H]1OC(=O)[C@H](C)[C@@H](O[C@H]2C[C@@](C)(OC)[C@@H](O[C@@H]3O[C@H](C)[C@@H](OCc4ccccc4)[C@H](N(C)C)[C@H]3O)[C@H](C)O2)[C@H](C)[C@@H](O[C@@H]2O[C@H](C)C[C@H](N(C)C)[C@H]2O)[C@@](C)(OC)C[C@@H](C)C(=O)[C@H](C)[C@H]2OC(=O)O[C@@]21C", "MIC": "> 32 µg/mL"}

Short answer please: MIC, Streptococcus pyogenes, entry CC[C@H]1OC(=O)[C@H](C)[C@@H](O[C@H]2C[C@@](C)(OC)[C@@H](O[C@@H]3O[C@H](C)[C@@H](O)[C@H](N(C)C)[C@H]3OC(=O)c3ccccc3)[C@H](C)O2)[C@H](C)[C@@H](O[C@@H]2O[C@H](C)C[C@H](N(C)C)[C@H]2O)[C@@](C)(OC)C[C@@H](C)C(=O)/C(C)=C/[C@]1(C)O
> 32 µg/mL

----------
tested on: Staphylococcus aureus; test: Antibacterial activity against methicillin-resistant Staphylococcus aureus 12-31 by broth microdilution method; assay type: functional
What MIC was measured for each of the following?

{"compound": "CC[C@H]1OC(=O)[C@H](C)C(=O)[C@H](C)[C@@H](O[C@@H]2O[C@H](C)C[C@H](N(C)C)[C@H]2O)[C@](C)(OC)C[C@@H](C)C(=O)[C@H](C)[C@H]2N(CCCCn3cnc(-c4cccnc4)c3)C(=O)O[C@]12C [TELITHROMYCIN]", "MIC": "> 64 µg/mL"}

Next up:
Can you share its MIC? I mean this compound: CC[C@H]1OC(=O)[C@H](C)[C@@H](O[C@H]2C[C@@](C)(OC)[C@@H](O[C@@H]3O[C@H](C)[C@@H](OCc4ccccc4)[C@H](N(C)C)[C@H]3OC(=O)c3ccccc3)[C@H](C)O2)[C@H](C)[C@@H](O[C@@H]2O[C@H](C)C[C@H](N(C)C)[C@H]2O)[C@@](C)(OC)C[C@@H](C)C(=O)[C@H](C)[C@@H](O)[C@]1(C)O
> 32 µg/mL
